// reported pIC50 for each item listed
SYSTEM_UNDER_TEST: influenza A virus minigenome (PB2, PB1, PA, NP proteins)
Type: cell-based
RUN_PARAMETERS: read-out: RNP_ Hubei B IC50
pIC50: −log10 of the molar value.

Some solved entries appear below for comparison.
NC(=O)c1cc(-c2ccc(OCC3COC(CF)CO3)cc2)c(C(F)(F)F)[nH]c1=O (single isomer, unassigned) [Example 341]; 5.00 to 5.30
CCn1nccc1COc1ccc(-c2cc(C(N)=O)c(=O)[nH]c2C(F)(F)F)cc1; 4.30 to 4.60
CC(C)[C@H]1COCC(COc2ccc(-c3cc(C(N)=O)c(=O)[nH]c3C(F)(F)F)cc2)N1C (some centres unmarked); 5.30 to 6.00
CC(C)(C)OC(=O)N1C[C@H](F)C[C@H]1COc1ccc(-c2cc(C(N)=O)c(=O)[nH]c2C(F)(F)F)cc1; 4.30 to 4.60
CCN1CCOCC1COc1ccc(-c2cc(C(N)=O)c(=O)[nH]c2C(F)(F)F)cc1 (centres unmarked); 5.00 to 5.30

# pIC50 measured on influenza A virus minigenome (PB2, PB1, PA, NP proteins) for item CC(F)(F)C1COCC(COc2ccc(-c3cc(C(N)=O)c(=O)[nH]c3C(F)(F)F)cc2)O1 (single isomer, unassigned) [Example 359] = 5.00 to 5.30

# pIC50 measured on influenza A virus minigenome (PB2, PB1, PA, NP proteins) for item CC1COC(COc2ccc(-c3cc(C(N)=O)c(=O)[nH]c3C(F)(F)F)cc2)CO1 (single isomer, unassigned) [Example 323] = 4.60 to 5.00

# pIC50 measured on influenza A virus minigenome (PB2, PB1, PA, NP proteins) for item C[C@H]1COC[C@@H](COc2ccc(-c3cc(C(N)=O)c(=O)[nH]c3C(F)(F)F)cc2)O1 = 4.30 to 4.60

# pIC50 measured on influenza A virus minigenome (PB2, PB1, PA, NP proteins) for item Cc1onc(-c2ccncc2)c1COc1ccc(-c2cc(C(N)=O)c(=O)[nH]c2C(F)(F)F)cc1 = 4.30 to 4.60

# pIC50 measured on influenza A virus minigenome (PB2, PB1, PA, NP proteins) for item COCC[C@@]1(C)COC[C@@H](COc2ccc(-c3cc(C(N)=O)c(=O)[nH]c3C(F)(F)F)cc2)O1 = 5.00 to 5.30

###

SYSTEM_UNDER_TEST: influenza A virus minigenome (PB2, PB1, PA, NP proteins)
Type: cell-based
RUN_PARAMETERS: read-out: RNP_ Hubei B IC50
MEASURE: IC50

CC1(OCC2COCC(COc3ccc(-c4cc(C(N)=O)c(=O)[nH]c4C(F)(F)F)cc3)O2)COC1 (single isomer, unassigned) [Example 378]; 5 to 10 µM

# IC50 measured on influenza A virus minigenome (PB2, PB1, PA, NP proteins) for item CC1COC(COc2ccc(-c3cc(C(N)=O)c(=O)[nH]c3C(F)(F)F)cc2)CO1 (single isomer, unassigned) [Example 322] = 25 to 50 µM

# IC50 measured on influenza A virus minigenome (PB2, PB1, PA, NP proteins) for item COC(C)(C)COCC1COCC(COc2ccc(-c3cc(C(N)=O)c(=O)[nH]c3C(F)(F)F)cc2)O1 (single isomer, unassigned) [Example 371] = 5 to 10 µM

###

// reported pIC50 for each item listed
SYSTEM_UNDER_TEST: influenza A virus minigenome (PB2, PB1, PA, NP proteins)
Type: cell-based
RUN_PARAMETERS: read-out: RNP_ Hubei B IC50
pIC50: −log10 of the molar value.

# pIC50 measured on influenza A virus minigenome (PB2, PB1, PA, NP proteins) for item CC(C)(C)OC(=O)N1CCC(COc2ccc(-c3cc(C(N)=O)c(=O)[nH]c3C(F)(F)F)cc2)C1 (stereo not shown) = 4.30 to 4.60

###

// reported pIC50 for each item listed
SYSTEM_UNDER_TEST: influenza A virus minigenome (PB2, PB1, PA, NP proteins)
Format: cell-based
RUN_PARAMETERS: read-out: RNP_ Hubei B IC50
pIC50: −log10 of the molar value.

Cc1cncc(COc2ccc(-c3cc(C(N)=O)c(=O)[nH]c3C(F)(F)F)cc2)n1; 5.00 to 5.30
COC[C@@]1(C)COC[C@@H](COc2ccc(-c3cc(C(N)=O)c(=O)[nH]c3C(F)(F)F)cc2)O1; 5.00 to 5.30
CC1(C)CC[C@@H](COc2ccc(-c3cc(C(N)=O)c(=O)[nH]c3C(F)(F)F)cc2)O1; 4.60 to 5.00
NC(=O)c1cc(-c2ccc(OCC3COCCO3)cc2)c(C(F)(F)F)[nH]c1=O (single isomer, unassigned) [Example 238]; 4.30 to 4.60
Cn1ncc2c1COCC2COc1ccc(-c2cc(C(N)=O)c(=O)[nH]c2C(F)(F)F)cc1 (single isomer, unassigned) [Example 290]; 5.00 to 5.30

Lookup result for CC(C)(O)C1COCC(COc2ccc(-c3cc(C(N)=O)c(=O)[nH]c3C(F)(F)F)cc2)O1 (single isomer, unassigned) [Example 355] ; measured pIC50: 5.00 to 5.30

Lookup result for NC(=O)c1cc(-c2ccc(OCC3COC(C(F)F)CO3)cc2)c(C(F)(F)F)[nH]c1=O (single isomer, unassigned) [Example 345] ; measured pIC50: 5.00 to 5.30

Lookup result for CC(C)n1ncc2c1COCC2COc1ccc(-c2cc(C(N)=O)c(=O)[nH]c2C(F)(F)F)cc1 (single isomer, unassigned) [Example 293] ; measured pIC50: 5.00 to 5.30

Lookup result for NC(=O)c1cc(-c2ccc(OCc3cnco3)cc2)c(C(F)(F)F)[nH]c1=O ; measured pIC50: 4.30 to 4.60

Lookup result for CN1C(=O)OCC1COc1ccc(-c2cc(C(N)=O)c(=O)[nH]c2C(F)(F)F)cc1 (stereo not drawn) ; measured pIC50: 4.30 to 4.60

###

SYSTEM_UNDER_TEST: influenza A virus minigenome (PB2, PB1, PA, NP proteins) (UniProt P04665)
Sequence (P04665 whole entry): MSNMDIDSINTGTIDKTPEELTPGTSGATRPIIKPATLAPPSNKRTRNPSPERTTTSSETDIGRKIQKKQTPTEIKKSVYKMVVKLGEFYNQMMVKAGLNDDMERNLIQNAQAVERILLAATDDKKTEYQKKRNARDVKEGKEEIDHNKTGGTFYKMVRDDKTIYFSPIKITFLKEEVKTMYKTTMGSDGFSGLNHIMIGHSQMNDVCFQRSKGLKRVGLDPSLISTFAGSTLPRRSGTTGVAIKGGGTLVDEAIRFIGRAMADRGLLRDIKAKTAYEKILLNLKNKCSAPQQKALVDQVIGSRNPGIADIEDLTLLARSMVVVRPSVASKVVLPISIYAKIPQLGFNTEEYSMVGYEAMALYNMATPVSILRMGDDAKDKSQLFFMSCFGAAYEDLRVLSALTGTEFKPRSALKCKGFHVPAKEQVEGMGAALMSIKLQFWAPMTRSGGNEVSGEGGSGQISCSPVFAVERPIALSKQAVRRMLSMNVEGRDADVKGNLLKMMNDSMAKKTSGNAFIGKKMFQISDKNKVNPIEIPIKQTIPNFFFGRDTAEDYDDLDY
Format: cell-based
RUN_PARAMETERS: read-out: RNP_Hubei B
pIC50: −log10 of the molar value.
// reported pIC50 for each item listed

NC(=O)c1cc(-c2ccc(CN3CCCOCC3)cc2)c(C(F)(F)F)[nH]c1=O; 4.30 to 4.60
COC1CCOC(COc2ccc(-c3cc(C(N)=O)c(=O)[nH]c3C(F)(F)F)cc2)C1 (single isomer, unassigned) [Example 202]; 4.60 to 5.00
NC(=O)c1cc(-c2ccc(CN3CCOCC3)cc2F)c(C(F)(F)F)[nH]c1=O; 4.60 to 5.00
NC(=O)c1cc(-c2ccc(OCc3cccc([N+](=O)[O-])c3)cc2)c(C(F)(F)F)[nH]c1=O; 4.60 to 5.00
NC(=O)c1cc(-c2ccc(OCC3CNC(=O)C3)cc2)c(C(F)(F)F)[nH]c1=O (centres unmarked); 5.00 to 5.30
CC(Oc1ccc(-c2cc(C(N)=O)c(=O)[nH]c2C(F)(F)F)cc1)c1cccc(C#N)c1 (single isomer, unassigned) [Example 98]; 5.30 to 6.00
NC(=O)c1cc(-c2ccc(OCc3ccccc3)cc2)c(C(F)(F)F)[nH]c1=O; 5.00 to 5.30
NC(=O)c1cc(-c2ccc(CN3CCS(=O)(=O)CC3)cc2)c(C(F)(F)F)[nH]c1=O; 4.30 to 4.60
NC(=O)c1cc(-c2ccc(OCc3ccc(C(F)(F)F)cc3)cc2)c(C(F)(F)F)[nH]c1=O; 5.30 to 6.00
NC(=O)c1cc(-c2ccc(COc3cccnc3)cc2)c(C(F)(F)F)[nH]c1=O; 4.30 to 4.60

Lookup result for NC(=O)c1cc(-c2ccc(OCC3CNCCO3)cc2)c(C(F)(F)F)[nH]c1=O (centres unmarked) ; measured pIC50: 4.30 to 4.60

Lookup result for NC(=O)c1cc(-c2ccc(OCc3ccc(F)c([N+](=O)[O-])c3)cc2)c(C(F)(F)F)[nH]c1=O ; measured pIC50: 4.60 to 5.00

Lookup result for COc1ccc(COc2ccc(-c3cc(C(N)=O)c(=O)[nH]c3C(F)(F)F)cc2)cc1 ; measured pIC50: 5.00 to 5.30

Lookup result for CC1CN(Cc2ccc(-c3cc(C(N)=O)c(=O)[nH]c3C(F)(F)F)cc2)CCO1 (centres unmarked) ; measured pIC50: 4.60 to 5.00

Lookup result for NC(=O)c1cc(-c2ccc(CC3(O)CCOCC3)cc2)c(C(F)(F)F)[nH]c1=O ; measured pIC50: 4.30 to 4.60

Lookup result for NC(=O)c1cc(-c2ccc(OCC3COCC(C(F)F)O3)cc2)c(C(F)(F)F)[nH]c1=O (single isomer, unassigned) ; measured pIC50: 5.00 to 5.30

Lookup result for NC(=O)c1cc(-c2ccc(CN3C[C@H]4CC[C@@H](C3)O4)cc2)c(C(F)(F)F)[nH]c1=O ; measured pIC50: 5.30 to 6.00

Lookup result for NC(=O)c1cc(-c2ccc(OCC3CNCCCO3)cc2)c(C(F)(F)F)[nH]c1=O (centres unmarked) ; measured pIC50: 4.30 to 4.60

Lookup result for NC(=O)c1cc(-c2ccc(OCc3ccc4cn[nH]c4c3)cc2)c(C(F)(F)F)[nH]c1=O ; measured pIC50: 4.30 to 4.60

Lookup result for CN1C(COc2ccc(-c3cc(C(N)=O)c(=O)[nH]c3C(F)(F)F)cc2)COCC12COC2 (centres unmarked) ; measured pIC50: 4.30 to 4.60

Lookup result for NC(=O)c1cc(-c2ccccc2)c(C(F)(F)F)[nH]c1=O ; measured pIC50: 4.30 to 4.60

Lookup result for N#Cc1cccc(COc2ccc(-c3cc(C(N)=O)c(=O)[nH]c3C(F)(F)F)cc2)c1 ; measured pIC50: 4.30 to 4.60

Lookup result for CC(Oc1ccc(-c2cc(C(N)=O)c(=O)[nH]c2C(F)(F)F)cc1)c1ccc2nonc2c1 (single isomer, unassigned) ; measured pIC50: 5.00 to 5.30

Values compiled from patent US20240360082A1.
